For each of the compounds below, state its IC50.
# system-tested: C. tarichi Pallas liver GST
# assay-protocol: In vitro inhibition effect of metals on GST enzyme activity
# experimental-conditions: purified liver GST; from Activity (%)–[metal ion] plots
Give bare numbers, in µM.

Answered cases to consult:
compound: [Cd+2] [Cd^2+]
system-tested: C. tarichi Pallas liver GST
IC50, µM: 235

compound: [Cu+2] [Cu^2+]
system-tested: C. tarichi Pallas liver GST
IC50, µM: 163

compound: [Co+2] [Co^2+]
system-tested: C. tarichi Pallas liver GST
IC50, µM: 446

Then this compound:
Exercise: Given the compound [Ag+] [Ag^+] , what is its reported IC50?
Solution: 0.21

---

Exercise: for every item that follows, state its recorded Ki.
# system-tested: C. tarichi Pallas liver GST
# assay-protocol: In vitro inhibition effect of metals on GST enzyme activity
# Type: biochemical, Chalcalburnus tarichi Pallas
# experimental-conditions: GSH substrate; Lineweaver–Burk plots, three metal concentrations; mean ± standard error of the mean
# Method: C. tarichi Pallas fish were obtained from Van Lake basin. The liver samples of C. tarichi Pallas were immediately removed and preserved for experimental studies according to the cold chain principles. The livers were sliced into small pieces and successfully lysed by a homogenizer in 50 mM Tris/HCl buffer (pH 7.2) containing 1 mM DTT, 1 mM PMSF and 1 mM EDTA. […] GST activity was measured with the method in our previous study using CDNB as the model substrate. […]
Numbers only, in µM.

structure: [Cd+2]
system-tested: C. tarichi Pallas liver GST
unit-of-measure: µM
Ki: 117

Exercise: Which Ki value belongs to [Cu+2] ?
Solution: 49

---

# Test system: C. tarichi Pallas liver GST
# assay-protocol: In vitro inhibition effect of metals on GST enzyme activity
# Assay type: biochemical, Chalcalburnus tarichi Pallas
# experimental-conditions: GSH substrate; Lineweaver–Burk plots
outcome-measure: Inhibition type

structure: [Cd+2]
result: Competitive
--
structure: [Co+2]
result: Competitive
--
structure: [Cu+2]
result: Competitive
